Target: T1, Anti-CD28 Fab (SEQ ID NOs: 202, 203)
T1 construct: biotinylated and captured on neutravidin coated plates in the phage ELISA
T1 sequence (VH, as listed by the source, chain 1 of 2): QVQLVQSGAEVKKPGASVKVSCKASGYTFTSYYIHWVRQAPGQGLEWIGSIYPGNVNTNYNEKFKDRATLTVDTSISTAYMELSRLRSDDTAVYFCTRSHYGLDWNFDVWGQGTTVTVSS
T1 sequence (VL, as listed by the source, chain 2 of 2): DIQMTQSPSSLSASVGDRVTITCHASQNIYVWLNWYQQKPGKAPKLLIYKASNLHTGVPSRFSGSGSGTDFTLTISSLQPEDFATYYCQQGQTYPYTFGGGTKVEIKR
Assay: phage binding ELISA, Fab on plate;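 further: clonal phage supernatant ELISA, wells preincubated with CD28 antigen or blocking buffer only, then bound phage detected using HRP-linked anti-M13 antibody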
MEASUREMENT KIND: Anti-CD28 Fab (SEQ ID NOs: 202, 203) signal
Give bare numbers.

Would you mind listing Anti-CD28 Fab (SEQ ID NOs: 202, 203) signal for each of the following binders?
1. TCAAGAVWGWPLCF [Phage-1039]
2. TCAAGAMWNWPQCY [Phage-1092]
3. TCSAGAMWTWPYCF [Phage-989]
4. LCAEGADYPWPMCL [Phage-1098]
5. SCAAGATYEWPICL [Phage-1074]

output:
[1.73, 1.54, 1.93, 1.51, 1.59]
